- MEASUREMENT NOTES: Tacrolimus whole blood concentration, trough and 12-h AUC after kidney transplantation (chemiluminescent microparticle immunoassay)
- Assay type: in vivo, human
- CONDITIONS: human, whole blood, oral, 30 mg, day 3 post-transplantation; CYP3A5 non-expressers, diltiazem 30 mg every 12 h (n = 9); median (IQR)
ATTRIBUTE MEASURED: C0 (ng/mL)
One number for each entry, in ng/mL.

### Prompt Could you share which C0 value was measured for `C=CC[C@@H]1/C=C(\C)C[C@H](C)C[C@H](OC)[C@H]2O[C@@](O)(C(=O)C(=O)N3CCCC[C@H]3C(=O)O[C@H](/C(C)=C/[C@@H]3CC[C@@H](O)[C@H](OC)C3)[C@H](C)[C@@H](O)CC1=O)[C@H](C)C[C@@H]2OC` ?
### Response 11.9

====

- MEASUREMENT NOTES: Tacrolimus whole blood concentration, trough and 12-h AUC after kidney transplantation (chemiluminescent microparticle immunoassay)
- Type: in vivo, human
- CONDITIONS: human, whole blood, oral, 30 mg, day 7 post-transplantation; CYP3A5 expressers, diltiazem 30 mg every 12 h (n = 11); mean ± SD
ATTRIBUTE MEASURED: C0
For clarity, give the value followed by its unit.

### Prompt Could you share which C0 value was measured for C=CC[C@@H]1/C=C(\C)C[C@H](C)C[C@H](OC)[C@H]2O[C@@](O)(C(=O)C(=O)N3CCCC[C@H]3C(=O)O[C@H](/C(C)=C/[C@@H]3CC[C@@H](O)[C@H](OC)C3)[C@H](C)[C@@H](O)CC1=O)[C@H](C)C[C@@H]2OC [Tacrolimus] ?
### Response 7.4 ng/mL

====

- MEASUREMENT NOTES: Tacrolimus whole blood concentration, trough and 12-h AUC after kidney transplantation (chemiluminescent microparticle immunoassay)
- Format: in vivo, human
- CONDITIONS: human, whole blood, oral, day 1 post-transplantation; CYP3A5 non-expressers, placebo (n = 8); mean ± SD
- Method: This prospective, randomized, double-blind, placebo-controlled study was carried out in four parallel groups of KTRs. […] […] Whole blood tacrolimus concentrations were determined within the same day of blood collection by using a chemiluminescent microparticle immunoassay method with […] system® i2000 (Abbott, Abbott Diagnostic, USA). […] For calculation of AUC/D and C0/D, values of AUC and C0 were dose-adjusted by dividing the observed values by the dose recorded on the day of blood collection. […]
ATTRIBUTE MEASURED: C0
For clarity, give the value followed by its unit.

### Prompt Could you share which C0 value was measured for C=CC[C@@H]1/C=C(\C)C[C@H](C)C[C@H](OC)[C@H]2O[C@@](O)(C(=O)C(=O)N3CCCC[C@H]3C(=O)O[C@H](/C(C)=C/[C@@H]3CC[C@@H](O)[C@H](OC)C3)[C@H](C)[C@@H](O)CC1=O)[C@H](C)C[C@@H]2OC [Tacrolimus] ?
### Response 12.6 ng/mL

====

- MEASUREMENT NOTES: Tacrolimus whole blood concentration, trough and 12-h AUC after kidney transplantation (chemiluminescent microparticle immunoassay)
- Format: in vivo, human
- CONDITIONS: human, whole blood, oral, day 1 post-transplantation; CYP3A5 expressers, placebo (n = 12); mean ± SD
ATTRIBUTE MEASURED: C0 (ng/mL)
Numbers only, in ng/mL.

### Prompt Could you share which C0 value was measured for `C=CC[C@@H]1/C=C(\C)C[C@H](C)C[C@H](OC)[C@H]2O[C@@](O)(C(=O)C(=O)N3CCCC[C@H]3C(=O)O[C@H](/C(C)=C/[C@@H]3CC[C@@H](O)[C@H](OC)C3)[C@H](C)[C@@H](O)CC1=O)[C@H](C)C[C@@H]2OC` ?
### Response 7
